Every entry's value here was drawn from patent US10660877B2.

# MEASURED ON: human TLR8 (Homo sapiens (Human))
# Sequence (Q9NR97 27-1041): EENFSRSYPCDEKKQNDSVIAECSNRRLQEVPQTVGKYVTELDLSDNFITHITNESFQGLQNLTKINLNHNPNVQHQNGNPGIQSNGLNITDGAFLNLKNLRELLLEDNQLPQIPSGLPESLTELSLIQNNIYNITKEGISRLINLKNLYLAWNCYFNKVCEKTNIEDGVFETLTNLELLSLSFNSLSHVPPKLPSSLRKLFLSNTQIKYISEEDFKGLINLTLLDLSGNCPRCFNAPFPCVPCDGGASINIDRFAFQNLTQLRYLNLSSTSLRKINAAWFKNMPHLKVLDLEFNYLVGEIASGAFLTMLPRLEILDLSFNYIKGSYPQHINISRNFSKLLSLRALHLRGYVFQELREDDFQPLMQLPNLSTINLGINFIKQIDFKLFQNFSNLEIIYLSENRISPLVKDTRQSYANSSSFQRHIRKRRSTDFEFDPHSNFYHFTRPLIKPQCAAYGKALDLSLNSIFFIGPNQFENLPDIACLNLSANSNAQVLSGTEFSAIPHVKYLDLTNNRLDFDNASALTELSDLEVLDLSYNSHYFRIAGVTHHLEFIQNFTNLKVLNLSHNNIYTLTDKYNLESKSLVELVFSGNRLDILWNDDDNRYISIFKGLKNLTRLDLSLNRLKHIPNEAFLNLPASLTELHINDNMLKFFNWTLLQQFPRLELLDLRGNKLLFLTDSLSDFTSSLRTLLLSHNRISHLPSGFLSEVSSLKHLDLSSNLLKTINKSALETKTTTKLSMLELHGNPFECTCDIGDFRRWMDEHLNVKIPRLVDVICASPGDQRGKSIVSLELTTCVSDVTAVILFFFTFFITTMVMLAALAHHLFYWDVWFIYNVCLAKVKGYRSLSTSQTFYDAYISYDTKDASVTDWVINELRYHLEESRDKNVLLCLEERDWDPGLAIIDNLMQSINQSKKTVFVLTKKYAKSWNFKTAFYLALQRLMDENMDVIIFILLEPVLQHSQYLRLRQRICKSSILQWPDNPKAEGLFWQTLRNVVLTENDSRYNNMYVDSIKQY
# PROCEDURE TEXT: TLR8 inhibition reporter assay (HEK-Blue cells, SEAP reporter, R848 stimulation);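 further: compounds tested from 0.05 nM to 50 µM, 22 h at 37 °C, SEAP measured with HEK-Blue Detection, inhibition relative to agonist plus DMSO versus a known inhibitor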
# CONDITION DESCRIPTION: read-out: TLR8 IC50, HEK-Blue cells overexpressing human TLR8, R848 15.9 μM
Can you tell me pIC50 for the items I'm about to list?
Answers are plain numbers, as −log10 of the molar value.

CNCCN1CCC(c2ccc3[nH]c(-c4cc(C)nc(C)c4)c(CC(F)F)c3c2)CC1 = 7.65
Cc1cc(-c2[nH]c3ccc(C4CCN(S(=O)(=O)c5ccc(F)cc5)CC4)cc3c2C(C)C)ccn1 = 5.99
Cc1ccc(OC(=O)N2CCC(c3ccc4[nH]c(-c5ccnc(C)c5)c(C(C)C)c4c3)CC2)cc1 = 5.49

State the recorded pIC50 for every item in the following list.
1. Cc1cc(-c2[nH]c3ccc(C4CCN(CC(=O)N(C)C5CC5)CC4)cc3c2C(C)C)cc(C)n1
2. Cc1cc(-c2[nH]c3ccc(C4CCN(C(=O)CN5CC(F)(F)C[C@H]5CO)CC4)cc3c2C(C)C)cc(C)n1
3. Cc1cc(-c2[nH]c3ccc(C4CCN(C(=O)CN5CCCCS5(=O)=O)CC4)cc3c2C(C)C)cc(C)n1
4. COc1cc(OC)nc(CN2CCC(c3ccc4[nH]c(-c5cc(C)ncc5F)c(C(C)C)c4c3)CC2)n1

Ans:
1: 7.99; 2: 6.68; 3: 7.29; 4: 8.11
